Let's look at some compounds and their measured IC50.
test system: human lung fibroblasts (MRC-5), gastric epithelial cells (AGS) and hepatocytes HepG2; assay: Cytotoxicity, MTT reduction assay, summary over the three cell lines; format: cell-based; conditions: Homo sapiens; MRC-5, AGS and HepG2, 24 h, MTT; read-out: IC50 values, range over the three cell lines

COMPOUND	MEASUREMENT TARGET	IC50
C=C1CC[C@@H]2[C@](C)(CCC[C@]2(C)C(=O)O)[C@H]1CC[C@H](C)CCO [Compound 2, imbricatolic acid, reference compound]	human lung fibroblasts (MRC-5), gastric epithelial cells (AGS) and hepatocytes HepG2	111 to 148 µM

// lookup IC50 for COc1ccc2cc([C@H](C)C(=O)Oc3cc4c(cc3C(C)C)CCC3C(C)(C)CCC[C@]43C)ccc2c1 (stereo partly drawn) [Compound 7, Ferruginyl naproxenate]
≥ 874 µM

Ok, now CC(C)Cc1ccc(C(C)C(=O)O)cc1 (stereo not drawn) [Compound 4, ibuprofen, reference compound]
> 1000 µM

Same read-out for C=C1CCC2[C@](C)(CCC[C@]2(C)C(=O)OC)[C@H]1CC[C@@H](C)CCOC(=O)[C@@H](C)c1ccc(CC(C)C)cc1 (mixture of isomers) ?
≥ 601 µM

Then what about the compound C=C1CCC2[C@](C)(CCC[C@]2(C)C(=O)O)[C@H]1CC[C@@H](C)CCOC(=O)[C@@H](C)c1ccc2cc(OC)ccc2c1 (stereo partly drawn) [Compound 10, Imbricatol-15-yl naproxenate] ?
29 to 69 µM

Would you mind doing CC(C)c1cc2c(cc1O)[C@@]1(C)CCCC(C)(C)[C@@H]1CC2 [Compound 1, ferruginol, reference compound] as well?
29 to 39 µM
